# Test system: Fusarium udum
# ASSAY_COMMENT: Antifungal activity against Fusarium udum assessed as growth inhibition at 250 ug/ml by poisoned food technique
# Assay type: functional
Label TRUE when inhibition at 250 µg/mL is at or above 80%; otherwise label FALSE.

The following compounds have reported results that may help.
COc1cc(C)c2c(=O)c3c(O)cc(OC)cc3oc2c1 [LICHEXANTHONE] : FALSE
Cc1cc(O)c(C=O)c2c1C(=O)Oc1c(CO)c(O)c3c(c1O2)C(O)OC3=O (stereo unspecified) [SLAZINIC ACID] : FALSE
COc1cc(C)c(C(=O)Oc2cc(C)c(C(=O)O)c(O)c2C)c(O)c1C=O [BAEOMYCESIC ACID] : FALSE

Is reported inhibition at 250 µg/mL greater than or equal to 80% here: COC(=O)c1c(C)cc(OC(=O)c2c(C)cc(O)c(C=O)c2O)c(C)c1O [ATRANORIN] TRUE

Please answer likewise for `COc1cc(C)c(C(=O)O)c(O)c1C` FALSE

Field entry: C=C1C(=O)OC(CCCCCCCCCCCCC)C1C(=O)O (racemic) [(+/-)-Protolichesterinic acid] TRUE

Then this compound: COC(=O)c1c(C)cc(O)c(C=O)c1O [METHYL HAEMATOMMATE] FALSE

Thanks! And CCOC(=O)c1c(C)cc(O)c(C=O)c1O [ETHYL HEMATOMMATE] ? FALSE
